Provide the reported Kd of each item.
- Study target: Axl (Homo sapiens, UniProt P30530)
- Sequence (P30530 26-894): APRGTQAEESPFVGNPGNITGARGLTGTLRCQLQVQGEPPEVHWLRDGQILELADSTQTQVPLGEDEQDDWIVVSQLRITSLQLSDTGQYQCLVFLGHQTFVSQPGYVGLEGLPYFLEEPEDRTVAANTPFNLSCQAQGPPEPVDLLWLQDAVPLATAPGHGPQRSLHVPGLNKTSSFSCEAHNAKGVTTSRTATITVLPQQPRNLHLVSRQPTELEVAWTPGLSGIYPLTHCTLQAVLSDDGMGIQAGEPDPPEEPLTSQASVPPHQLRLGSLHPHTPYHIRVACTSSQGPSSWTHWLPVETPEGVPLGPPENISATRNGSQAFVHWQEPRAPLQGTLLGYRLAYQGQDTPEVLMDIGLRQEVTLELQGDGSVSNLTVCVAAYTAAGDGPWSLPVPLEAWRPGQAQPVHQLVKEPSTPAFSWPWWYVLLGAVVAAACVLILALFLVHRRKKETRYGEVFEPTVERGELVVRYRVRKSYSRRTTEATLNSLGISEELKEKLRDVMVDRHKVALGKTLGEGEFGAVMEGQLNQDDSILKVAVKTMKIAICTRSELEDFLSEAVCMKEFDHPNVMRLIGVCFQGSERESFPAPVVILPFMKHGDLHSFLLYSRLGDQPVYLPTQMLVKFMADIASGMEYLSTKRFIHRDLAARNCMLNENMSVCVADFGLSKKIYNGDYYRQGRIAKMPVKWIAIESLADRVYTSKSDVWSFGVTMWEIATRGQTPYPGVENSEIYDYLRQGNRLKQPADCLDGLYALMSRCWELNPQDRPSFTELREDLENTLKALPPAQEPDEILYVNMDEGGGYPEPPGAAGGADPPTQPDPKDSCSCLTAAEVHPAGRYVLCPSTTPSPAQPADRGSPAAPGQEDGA
- Experiment: LanthaScreen Eu kinase binding assay for Axl
- Condition info: read-out: Axl kinase binding activity (Kd)

Ask: Can you share its Kd? I mean this molecule: COc1cc2nccc(Oc3ccc(NC(=O)c4nn(C5CCNC5)cc4OCC(F)(F)F)nn3)c2cc1OC (stereo not drawn) [Compound 122]
Result: 100 to 500 nM

Ask: // query: COc1cc2nccc(Oc3ccc(NC(=O)c4nn(C5CCCC5)cc4OCC(F)(F)F)cc3F)c2cc1OC [Compound 52]
Result: < 100 nM

Ask: // query: COc1cc2nccc(Oc3ccc(NC(=O)c4nn(C5CCN(C)C5)cc4OCC(F)(F)F)cc3C)c2cc1OC (stereo not drawn) [Compound 98]
Result: 100 to 500 nM

Ask: // query: CNCCn1cc(OCC(F)(F)F)c(C(=O)Nc2ccc(Oc3ccnc4cc(OC)c(OC)cc34)c(F)c2)n1 [Compound 155]
Result: < 100 nM

Ask: // query: CNCCn1cc(OCC(F)(F)F)c(C(=O)Nc2ccc(Oc3ccnc4cc(OC)c(OC)cc34)nn2)n1 [Compound 127]
Result: ≥ 500 nM

Ask: // query: COc1cc2nccc(Oc3ccc(NC(=O)c4nn(CC(C)C)cc4OCC(F)(F)F)c(F)c3)c2cc1OC [Compound 48]
Result: < 100 nM

Ask: // query: COc1cc2nccc(Oc3ccc(NC(=O)c4nn(C(C)C)c(C)c4OCC(F)(F)F)nc3)c2cc1OC [Compound 2]
Result: < 100 nM

Ask: // query: COc1cc2nccc(Oc3ccc(NC(=O)c4nn(CCN)cc4OCC(F)(F)F)c(F)c3)c2cc1OC [Compound 75]
Result: 100 to 500 nM

Ask: // query: COCCOc1cn(C2CC2)nc1C(=O)Nc1ccc(Oc2ccnc3cc(OC)c(OC)cc23)nn1 [Compound 171]
Result: < 100 nM

Ask: // query: COc1cc2nccc(Oc3ccc(NC(=O)c4nn(C5CCNC5)cc4OCC(F)(F)F)cc3F)c2cc1OC (stereo not drawn) [Compound 78]
Result: < 100 nM

Ask: // query: CCn1nc(C(=O)Nc2ccc(Oc3ccnc4cc(OC)c(OC)cc34)cn2)c(OCC(F)(F)F)c1C [Compound 1]
Result: < 100 nM

Ask: // query: COc1cc2nccc(Oc3ccc(NC(=O)c4nn(CC(C)O)cc4OCC(F)(F)F)cc3C)c2cc1OC (stereo not drawn) [Compound 83]
Result: < 100 nM

Ask: // query: COc1cc2nccc(Oc3ccc(NC(=O)c4nn(C5CCCC5)cc4OCC(F)(F)F)nc3)c2cc1OC [Compound 40]
Result: < 100 nM

Ask: // query: COc1cc2nccc(Oc3ccc(NC(=O)c4nn(C)cc4OCC(F)(F)F)nn3)c2cc1OC [Compound 102]
Result: < 100 nM

Ask: // query: COc1cc2nccc(Oc3ccc(NC(=O)c4nn(CCO)cc4OCC(F)(F)F)cn3)c2cc1OC [Compound 129]
Result: 100 to 500 nM

###

- Study target: CSF1R (Ba/F3 cells) (Homo sapiens, UniProt P07333)
- Sequence (P07333 whole entry, change not shown): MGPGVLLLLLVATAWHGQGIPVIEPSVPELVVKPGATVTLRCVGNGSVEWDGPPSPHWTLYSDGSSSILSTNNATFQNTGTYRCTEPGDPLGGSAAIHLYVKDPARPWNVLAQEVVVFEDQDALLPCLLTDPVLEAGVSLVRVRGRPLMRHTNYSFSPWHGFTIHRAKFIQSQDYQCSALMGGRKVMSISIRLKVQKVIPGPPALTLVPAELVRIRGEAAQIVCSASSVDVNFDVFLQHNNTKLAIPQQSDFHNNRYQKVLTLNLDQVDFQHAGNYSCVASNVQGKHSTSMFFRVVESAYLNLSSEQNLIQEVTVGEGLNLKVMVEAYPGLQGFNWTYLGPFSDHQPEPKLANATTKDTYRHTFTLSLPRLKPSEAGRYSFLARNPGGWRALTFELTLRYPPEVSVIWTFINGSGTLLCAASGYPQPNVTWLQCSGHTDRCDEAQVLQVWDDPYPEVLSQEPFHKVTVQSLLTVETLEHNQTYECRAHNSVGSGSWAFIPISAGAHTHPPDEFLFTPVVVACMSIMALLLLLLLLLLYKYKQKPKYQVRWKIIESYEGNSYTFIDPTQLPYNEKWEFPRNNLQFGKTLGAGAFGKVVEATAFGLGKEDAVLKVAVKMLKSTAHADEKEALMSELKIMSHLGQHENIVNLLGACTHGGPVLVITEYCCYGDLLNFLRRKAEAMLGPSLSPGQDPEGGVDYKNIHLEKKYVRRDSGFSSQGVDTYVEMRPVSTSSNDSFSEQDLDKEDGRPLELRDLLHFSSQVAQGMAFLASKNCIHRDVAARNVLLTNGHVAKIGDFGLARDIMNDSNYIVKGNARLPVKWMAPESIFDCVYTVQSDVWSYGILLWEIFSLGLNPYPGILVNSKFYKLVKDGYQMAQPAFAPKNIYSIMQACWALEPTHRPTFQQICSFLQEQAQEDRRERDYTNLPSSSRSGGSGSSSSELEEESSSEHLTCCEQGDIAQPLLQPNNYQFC
- Experiment: BaF3 viability assay, CSF1R-dependent cells
- Assay type: cell-based
- Condition info: read-out: Cellular CSF1R activity by Ba/F3 assay (IC50)
Parameter measured: GI50

Ask: Can you share its GI50? I mean this compound: `CCCn1cc(OC(C)C)c(C(=O)Nc2ccc(Oc3ccnc4cc(OC)c(OC(F)(F)F)cc34)c(F)c2)n1`
Result: 1 to 10 µM

Ask: // query: `COc1cc2nccc(Oc3ccc(NC(=O)c4nn(C[C@@H](C)O)cc4OCC(F)(F)F)nc3)c2cc1OC`
Result: < 1 µM

Ask: // query: `CCn1cc(OCC(F)(F)F)c(C(=O)Nc2ccc(Oc3ccnc4cc(OC)c(OC)cc34)cn2)n1`
Result: < 1 µM

Ask: // query: `COc1cc2nccc(Oc3ccc(NC(=O)c4nn(CCCO)cc4OCC(F)(F)F)nc3)c2cc1OC`
Result: < 1 µM

Ask: // query: `COc1cc2nccc(Oc3ccc(NC(=O)c4nn(C[C@H](C)O)cc4OCC(F)(F)F)nc3)c2cc1OC`
Result: < 1 µM
